# IC50 per entry
Target: p38 alpha (Homo sapiens, UniProt Q16539)
Sequence (Q16539 whole entry, the tested form may be a part): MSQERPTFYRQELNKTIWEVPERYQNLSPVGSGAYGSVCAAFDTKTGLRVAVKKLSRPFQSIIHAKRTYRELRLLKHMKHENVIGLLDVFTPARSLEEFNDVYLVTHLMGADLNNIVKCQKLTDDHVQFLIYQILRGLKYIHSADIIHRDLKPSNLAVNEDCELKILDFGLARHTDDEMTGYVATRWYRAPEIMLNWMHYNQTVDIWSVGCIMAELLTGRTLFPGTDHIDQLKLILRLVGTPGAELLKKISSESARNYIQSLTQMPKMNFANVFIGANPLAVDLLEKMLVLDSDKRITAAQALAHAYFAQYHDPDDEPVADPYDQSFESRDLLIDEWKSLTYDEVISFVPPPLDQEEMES
Test: P38 alpha enzyme inhibition assay (Alphascreen kinase activity assay)
Details: 100 pM p38 alpha, 2 hours preincubation at 25° C., 250 μM ATP, ATF-2 fusion protein; read-out: p38α inhibition
Procedure: P38 Alpha Enzyme Inhibition Assay The inhibitory activity of compounds was determined using an Alphascreen® (Perkin Elmer) based kinase activity assay. […] Detection was performed by measuring luminescence following the addition of Alphascreen Donor beads (Perkin Elmer 6765300) and Protein A Alphascreen Acceptor beads (Perkin Elmer 6760137), both at a final concentration of 20 ug/ml. IC50 values were determined from concentration-response curves.
Counter-ions that a name gives are not always drawn.

{"molecule": "CC(C)(C)c1cc(NC(=O)N[C@H]2CC[C@@H](Oc3ccc4nnc(C(C)(C)C)n4c3)c3ccccc32)nc(C(=O)NCCN2CCCOCC2)c1 [Example 209, formate salt]", "value-kind": "IC50", "value-measured": "< 1 nM"}
{"molecule": "C[C@H]1CCCCN1c1nnc2ccc(O[C@@H]3CC[C@H](NC(=O)Nc4cc(C(C)(C)C)nc(CN(C)C)n4)c4ccccc43)cn12 [Example 15]", "value-kind": "IC50", "value-measured": "< 1 nM"}
{"molecule": "CN1CCN(C(C)(C)c2nnc3ccc(O[C@@H]4CC[C@H](NC(=O)Nc5cc(CO)nc(C(C)(C)C)c5)c5ccccc54)cn23)CC1 [Example 198]", "value-kind": "IC50", "value-measured": "< 1 nM"}
{"molecule": "CCC(C)(C)c1nnc2ccc(O[C@@H]3CC[C@H](NC(=O)Nc4cc(C(C)(C)C)nc(C(=O)NCCN(C)CCOC)n4)c4ccccc43)cn12 [Example 4]", "value-kind": "IC50", "value-measured": "< 1 nM"}
{"molecule": "CC(C)(C)c1cc(NC(=O)N[C@H]2CC[C@@H](Oc3ccc4nnc(C(C)(C)C)n4c3)c3ccccc32)nc(CN2CCOCC2)n1 [Example 21]", "value-kind": "IC50", "value-measured": "1 to 10 nM"}

Record CCOC(C)(C)c1nnc2ccc(O[C@@H]3CC[C@H](NC(=O)Nc4cc(C(C)(C)C)nc(C(=O)NCCN(C)C)n4)c4ccccc43)cn12 [Example 180, formate salt] . Reported IC50: 1 to 10 nM

Record COCC(C)(C)c1nnc2ccc(O[C@@H]3CC[C@H](NC(=O)Nc4cc(C(C)(C)C)nc(C(=O)NCC5(N(C)C)CC5)n4)c4ccccc43)cn12 [Example 149] . Reported IC50: < 1 nM

Record COCCN(CCOC)Cc1nc(NC(=O)N[C@H]2CC[C@@H](Oc3ccc4nnc(C(C)(C)C)n4c3)c3ccccc32)cc(C(C)(C)C)n1 [Example 86] . Reported IC50: 1 to 10 nM

Record COCCN(C)CCNC(=O)c1nc(NC(=O)N[C@H]2CC[C@@H](Oc3ccc4nnc([C@H](C)OC)n4c3)c3ccccc32)cc(C(C)(C)C)n1 [Example 106] . Reported IC50: 1 to 10 nM

---

target: p38 alpha (Homo sapiens); assay: P38 alpha enzyme inhibition assay (Alphascreen kinase activity assay); details: 100 pM p38 alpha, 2 hours preincubation at 25° C., 250 μM ATP, ATF-2 fusion protein; read-out: p38α inhibition
# IC50 per entry

The examples below pair each entry with its known result.
{"molecule": "C[C@@H]1CCC[C@H](C)N1c1nnc2ccc(O[C@@H]3CC[C@H](NC(=O)Nc4cc(C(C)(C)C)nc(C(=O)NCCO)n4)c4ccccc43)cn12 [Example 19]", "IC50": "< 1 nM"}
{"molecule": "CN1CC(NC(=O)c2nc(NC(=O)N[C@H]3CC[C@@H](Oc4ccc5nnc(C(C)(C)C)n5c4)c4ccccc43)cc(C(C)(C)C)n2)C1 [Example 81]", "IC50": "< 1 nM"}

Record CCC(CC)c1nnc2ccc(O[C@@H]3CC[C@H](NC(=O)Nc4cc(C(C)(C)C)nc(C(=O)NCCN5CC(OC)C5)n4)c4ccccc43)cn12 [Example 6] . Reported IC50: < 1 nM

Record CN(C)CCNC(=O)c1nc(NC(=O)N[C@H]2CC[C@@H](Oc3ccc4nnc([C@]5(C)CCCN5)n4c3)c3ccccc32)cc(C(C)(C)C)n1 [Example 34] . Reported IC50: 1 to 10 nM
